Assignment: determine reported self-cleavage kobs at 40 uM GlcN6P for the given variants.
B1: glmS ribozyme (parent)
chain: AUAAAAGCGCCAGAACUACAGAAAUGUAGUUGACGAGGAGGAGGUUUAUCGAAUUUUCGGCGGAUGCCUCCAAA

- Variants of: B1
- Experiment Summary: self-cleavage kobs at 40 uM GlcN6P; higher = faster cleavage; RNA array
- Test Settings: with glucosamine-6-phosphate
This sample holds only a part of the variants without activity.

Known self-cleavage kobs at 40 uM GlcN6P results, listed for orientation:
Item under review: `AUAAAAGCGCCAGAAUUACAGAAAUGUAGUUGAGGAGGAGGAGGUUUAUCGAAUUUACGGCUGAUGCCUCCAAA` . Reported self-cleavage kobs at 40 uM GlcN6P?
< 1e-05 s⁻¹

Item under review: `AUAAAAGCGACAGAACUACAGAAAUGUAGUUGACGAGGAUGAGGUUUAUCGAAUUUUCGGCGGAUGCCUCCAAA` . Reported self-cleavage kobs at 40 uM GlcN6P?
< 1e-05 s⁻¹

Item under review: `AUAAAAGCGCCAGAACUACAGAAAUGUAGUUGUCGAGGAGGAGGUUUAUCGCAUUUUCGGCGGAUGCCUCCAAA` . Reported self-cleavage kobs at 40 uM GlcN6P?
< 1e-05 s⁻¹

Item under review: `AUAAACGCGCCAGAACUACAGAAAUGUAGUUGACGAGGAGGAGGUUUAUCGAAUUUUCGUCGGAUGCCUCCAAA` . Reported self-cleavage kobs at 40 uM GlcN6P?
< 1e-05 s⁻¹

Count: 3. Required value per item: self-cleavage kobs at 40 uM GlcN6P.
1. AUAAACGCGCCACAACUACAGAAAUGUAGUUGACGAGGAGGAGGUUUAUCGGAUUUUCGGCGGAUGCCUCCAAA
2. AUAAAAGCGGCAGAACUACAGAAAUGUAGUUGACGAGGAGGAGGUUUAUCGAAUUUUCGCCGGAUGCCUCCAAA
3. AUAAAAGCGCCAGAACUACAGAAAUGUAGUUGCCGAGGAGGUGGUUUAUCGAAUUUUCGGAGGAUGCCUCCAAA

1. < 1e-05 s⁻¹
2. 3.56e-05 s⁻¹
3. < 1e-05 s⁻¹
